# ASSAY_NOTES: Antiproliferative activity against mouse BA/F3 cells expressing Bcr-Abl E255V mutant after 72 hrs by CCK-8 assay
# PARTICULARS: BaF3, 72 h
pIC50: −log10 of the molar value.
If the reported pIC50 equals or exceeds 8, assign YES. If not, assign NO.

Cc1ccc(NC(=O)c2ccc(CN3CCN(C)CC3)cc2)cc1Nc1nccc(-c2cccnc2)n1
NO
CN1CCN(Cc2ccc(NC(=O)c3ccc(Cl)c(-n4cc(-c5cnc6[nH]ncc6c5)nn4)c3)cc2C(F)(F)F)CC1
YES
Cc1ccc(C(=O)Nc2ccc(CN3CCN(C)CC3)c(C(F)(F)F)c2)cc1-n1cc(-c2cnc3[nH]ncc3c2)nn1
YES
Cc1cn(-c2cc(NC(=O)c3ccc(C)c(Nc4nccc(-c5cccnc5)n4)c3)cc(C(F)(F)F)c2)cn1
NO

Below: the item to evaluate.
q: Decide: pIC50 of `Cc1nc(Nc2ncc(C(=O)Nc3c(C)cccc3Cl)s2)cc(N2CCN(CCO)CC2)n1` >= 8?
a: YES

From: ChEMBL document CHEMBL2176963
